- experimental-target: SARS-CoV-1 Spike (SARS-CoV-1, UniProt P59594 14-1195)
- experiment: ELISA
Please go through the items and note down their pIC50.
Lab note: report pIC50 as minus log10 of the concentration in molar units, number only.

Exam item: I am curious: what pIC50 value has been reported for 9-F6-A (antibody, V domains shown) VH: EVQLQQSGPELVKPGASVKMSCKASGYTFTSYIMHWVKQKPGQGLEWIGYILPYNDGTKYNEKFKGKATLTSDKSSSTAYMELRSLTSEDSAVYYCARWGYSNFLDSWGQGTTLTVSS VL: DIQMTQTTSSLSASLGDRVTISCRASQDINNYLNWYQQKPDGTVKLLIYYTSRLHSGVPSRFSGSGSGTDYSLTIRNLEQEDIATYFCQQGNTLPPTFGGGTKLEIK ?
Marked response: 8.26

Exam item: Give its pIC50 value. Item: 6-O12-A (antibody, V domains shown) VH: QVQLQQPGTELVKPGASVKLSCKASGYTFTSYWMHWVKQRPGQGLEWIGNINPSNGGTNYNEKFRSKATLTVDKSSSTAYMQLSSLTSEDSAVYYCARLGWFLPLGSWGQGTTLTVSS VL: QIVLTQSPAIMSASLGEVITLTCSASSSVSYMHWYQQKSGTSPKLLIYSTSNLASGVPSRFSGSGSGTFYSLTISSVEAEDAADYYCHQWSGYMYTFGGGTKLEIK
Marked response: 8.27

Exam item: Please report the recorded pIC50 for 8-A17-A (antibody, V domains shown) VH: QVQLKESGPGLVAPSQSLSITCTVSGFSLTSYAISWVRQPPGKGLEWLGVVWPGGGTNYNSALKSRLSINKDNSKSQVFLKMNSLQTDDTGRYYCARTGYHFDYWGQGTTLTVSS VL: QIVLTQSPAIMSASPGEKVTMTCSVSSSVSYMHWYQQKSGTSPKRWIYDTSKLASGVPARFSGSGSGTSYSLTISSMEAEDAATYYCQQWSSNPPMYTFGGGTKLEIK .
Marked response: 8.29

Exam item: For the binder 10-B13-A (antibody, V domains shown) VH: QVQLQQSGAELVKPGASVKISCKASGYAFSNYWMNWVKQRPGKGLEWIGQIYPGDGDTNYNGNFKGKATLTADKSSSTAYIQLSSLTSEDSAVYFCGRGFIATVVEVFDHWGLGTTLTVSS VL: DIQMTQTTSSLSASLGDRVTISCRASQDISNYLNWYQQKPDGTVKLLIYYTSRLQSGVPSRFSGSGTGTDYSLTISNLEQEDIATYFCQQGNTLPWTFGGGTKLEIK , what pIC50 is on record?
Marked response: 7.71
